Values from patent US20100260765A1

- Target System: human KDR on cells (human, UniProt P35968 20-1356)
- Sequence (P35968 20-1356): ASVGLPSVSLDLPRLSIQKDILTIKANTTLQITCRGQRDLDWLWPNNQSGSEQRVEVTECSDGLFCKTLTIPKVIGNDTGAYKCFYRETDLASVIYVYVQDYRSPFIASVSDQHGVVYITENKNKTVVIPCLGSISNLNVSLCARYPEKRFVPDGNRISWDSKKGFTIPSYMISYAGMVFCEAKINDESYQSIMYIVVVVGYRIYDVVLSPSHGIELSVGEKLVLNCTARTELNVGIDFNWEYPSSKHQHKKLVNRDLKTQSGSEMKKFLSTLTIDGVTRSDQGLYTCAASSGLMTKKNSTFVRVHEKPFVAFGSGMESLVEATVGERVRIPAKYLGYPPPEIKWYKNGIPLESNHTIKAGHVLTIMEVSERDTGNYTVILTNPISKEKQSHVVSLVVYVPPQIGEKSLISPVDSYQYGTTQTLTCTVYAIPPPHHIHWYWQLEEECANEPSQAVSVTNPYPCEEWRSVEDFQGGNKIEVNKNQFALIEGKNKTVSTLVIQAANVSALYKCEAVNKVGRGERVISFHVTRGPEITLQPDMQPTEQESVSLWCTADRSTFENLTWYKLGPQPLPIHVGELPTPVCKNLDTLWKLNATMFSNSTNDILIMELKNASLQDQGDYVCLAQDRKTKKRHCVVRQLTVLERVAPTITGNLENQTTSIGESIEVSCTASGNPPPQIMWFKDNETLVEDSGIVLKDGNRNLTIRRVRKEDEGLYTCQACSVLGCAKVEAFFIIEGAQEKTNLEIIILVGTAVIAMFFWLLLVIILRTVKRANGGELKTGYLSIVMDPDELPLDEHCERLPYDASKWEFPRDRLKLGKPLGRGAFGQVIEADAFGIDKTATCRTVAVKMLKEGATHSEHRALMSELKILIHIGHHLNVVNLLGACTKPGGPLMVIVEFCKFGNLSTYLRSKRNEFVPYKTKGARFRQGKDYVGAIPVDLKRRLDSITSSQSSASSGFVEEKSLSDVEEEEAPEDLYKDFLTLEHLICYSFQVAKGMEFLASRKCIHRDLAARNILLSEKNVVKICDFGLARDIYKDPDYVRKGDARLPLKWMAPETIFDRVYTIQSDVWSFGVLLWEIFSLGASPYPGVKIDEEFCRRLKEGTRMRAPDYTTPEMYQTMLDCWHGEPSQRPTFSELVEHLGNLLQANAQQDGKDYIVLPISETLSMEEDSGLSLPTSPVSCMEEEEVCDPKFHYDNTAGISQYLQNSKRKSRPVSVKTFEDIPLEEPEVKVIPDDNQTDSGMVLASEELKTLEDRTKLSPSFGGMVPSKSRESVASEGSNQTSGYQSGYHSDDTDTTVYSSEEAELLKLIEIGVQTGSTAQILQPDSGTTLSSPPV
- Method: cell-based or functional assay
Quantity Name: % Inhibition (N = 1) of VEGF-C-mediated KDR activity, antibody 100 nM (%)
The figure you give is taken to be in %; do not add the unit.

Qu. Can you share its % Inhibition (N = 1) of VEGF-C-mediated KDR activity, antibody 100 nM? I mean this binder: 33B1 (antibody, V domains shown) VH: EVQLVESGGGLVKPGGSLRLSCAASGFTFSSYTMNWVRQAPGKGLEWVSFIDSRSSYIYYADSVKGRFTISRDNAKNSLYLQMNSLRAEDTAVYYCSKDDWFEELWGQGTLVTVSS VL: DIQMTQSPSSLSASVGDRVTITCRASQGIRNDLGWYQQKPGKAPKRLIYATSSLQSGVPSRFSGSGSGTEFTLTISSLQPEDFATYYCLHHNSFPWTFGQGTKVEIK
Ans. 64
